Data origin: PubChem BioAssay

Biological target: Alpha-2C adrenergic receptor (Homo sapiens)
Assay: compounds altering alpha2C-coupled GIRK flux – cell-based, HEK293 alpha2C/GIRK1/2, thallium flux, primary screen (AID 624);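 note: slope of fluorescence ratio to pre-addition baseline per second over 15 to 24 s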
Conditions: thallium flux BTC fluorescence, at 10 µM, actives lie on both sides
Tick true (1) if slope is 0.006 or greater. Tick false (0) if slope is less than 0.006.

Input line: Please tell me: is the molecule Nc1cccc2c1C(=O)N(c1ccccc1)C2=O at or over 0.006 in terms of slope?
Output line: false (0)

Input line: Could you verify whether the entry O=C1CC(c2ccsc2)c2cc3c(cc2N1)OCCO3 (configuration not stated) shows slope of no less than 0.006?
Output line: true (1)

Input line: Please tell me: is the molecule CN(C)CCCN1C(=O)c2oc3ccc(Cl)cc3c(=O)c2C1c1cccnc1 (configuration not stated) at or over 0.006 in terms of slope?
Output line: true (1)

Input line: Check if slope >= 0.006 (inclusive). Item: Cc1[nH]nc2c1C(C1CC=CCC1)C(C#N)=C(N)O2 (configuration not stated)
Output line: false (0)

Input line: slope >= 0.006 for O=C(Nc1nc(-c2ccccc2)cs1)C1CCCO1 (configuration not stated) ?
Output line: false (0)

Input line: Answer whether slope of CCOc1cccc(-c2nnc3n2N=C(c2cc(OC)ccc2OC)CS3)c1 is greater than or equal to 0.006.
Output line: true (1)

Input line: Given the entry COc1ccc(/C=N/O)cc1COc1ccc(NC(C)=O)cc1 , answer whether its slope meets or surpasses 0.006.
Output line: true (1)

Input line: Reported slope reaches at least 0.006 for COc1ccc(OC)c(C(=O)CSc2nc3ncccc3[nH]2)c1 ?
Output line: true (1)

Input line: Is slope for Cc1cccc(-n2c(SCc3cc(=O)n4ccsc4n3)nc3ccccc32)c1 at or above 0.006?
Output line: false (0)

Input line: Check the entry O=C(Nc1ccccc1)c1cccc(N2CCCC2=O)c1 : does slope equal or exceed 0.006?
Output line: false (0)

Input line: Exam item: decide whether the reported slope for CCC(=O)N1CCN(CCN=CC2=C(O)CC(C)(C)CC2=O)CC1 is at least 0.006.
Output line: false (0)

Input line: Check if slope >= 0.006 (inclusive). Item: COc1ccccc1NC(=O)NC(N)=O
Output line: false (0)

Input line: Decide: is the reported value of slope for CNC(=O)CSc1nnc(-c2cccc(S(=O)(=O)N3CCOCC3)c2)n1-c1ccc(F)cc1 equal to or greater than 0.006?
Output line: false (0)

Input line: Exam item: decide whether the reported slope for CCCn1nnc(NCc2ccc(OCc3cccs3)c(OC)c2)n1 is at least 0.006.
Output line: false (0)

Input line: Check if slope >= 0.006 (inclusive). Item: O=C(c1ccc(Br)o1)N(Cc1ccccc1)c1ccccn1
Output line: false (0)

Input line: Hello, I need to know if Cc1cc(=O)[nH]c(SCC(=O)NCc2ccco2)n1 has measured slope not below 0.006. Thanks!
Output line: false (0)
